Measured shrunken log2 fold change accompanies every entry in the list below.
System: Escherichia coli TOP10
Assay: shrunken log2 fold change of peptide-encoding DNA abundance (4.5 h post-induction vs induction); higher = less antimicrobial activity (less host growth inhibition)
Details: time post-induction: 4.5 h; library: site-saturation at positions 5, 18, 19, 20
# output: bare number, no unit

Please review the entries below; each comes with its answer.
RRIRGRPPRLPRPRPRPNTVPRP	-0.0703
RRIRGRPPRLPRPRPRPQHYPRP	-0.167
RRIRNRPPRLPRPRPRPWNYPRP	-0.101
RRIRSRPPRLPRPRPRPSDMPRP	-0.373
RRIRPRPPRLPRPRPRPETRPRP	0.187
RRIRWRPPRLPRPRPRPKHKPRP	0.0536
RRIRHRPPRLPRPRPRPSACPRP	-0.0435

Let's switch to this sequence now.
input: Annotate the sequence RRIRARPPRLPRPRPRPLSHPRP with its measured shrunken log2 fold change.
output: 0.186

====

Tested on: Escherichia coli TOP10
Assay: shrunken log2 fold change of peptide-encoding DNA abundance (4.5 h post-induction vs induction); higher = less antimicrobial activity (less host growth inhibition)
Settings: time post-induction: 4.5 h; library: site-saturation at positions 5, 18, 19, 20
Reported values of shrunken log2 fold change for individual entries
Would you mind answering with just the numeric figure?

input: Lab note: Escherichia coli TOP10 assay, enter shrunken log2 fold change for RRIRRRPPRLPRPRPRPDDWPRP here
output: 0.359

input: Report shrunken log2 fold change under test system Escherichia coli TOP10 for RRIRCRPPRLPRPRPRPTMYPRP .
output: -0.541

input: Supply shrunken log2 fold change measured with Escherichia coli TOP10 for RRIRFRPPRLPRPRPRPDVSPRP .
output: 0.0432

====

Test system: Escherichia coli TOP10
Assay: shrunken log2 fold change of peptide-encoding DNA abundance (4.5 h post-induction vs induction); higher = less antimicrobial activity (less host growth inhibition)
Details: time post-induction: 4.5 h; library: site-saturation at positions 5, 18, 19, 20
Label Fulfilled when shrunken log2 fold change is at or above 0.1; otherwise label Not fulfilled.

RRIRERPPRLPRPRPRPNPRPRP	Fulfilled
RRIRARPPRLPRPRPRPQKFPRP	Not fulfilled
RRIRARPPRLPRPRPRPQDEPRP	Fulfilled
RRIRWRPPRLPRPRPRPLAHPRP	Fulfilled
RRIRTRPPRLPRPRPRPSYCPRP	Not fulfilled

input: Evaluate RRIRDRPPRLPRPRPRPFSAPRP : shrunken log2 fold change at minimum 0.1?
output: Not fulfilled

====

System: Escherichia coli TOP10
Test: shrunken log2 fold change of peptide-encoding DNA abundance (4.5 h post-induction vs induction); higher = less antimicrobial activity (less host growth inhibition)
Details: time post-induction: 4.5 h; library: site-saturation at positions 5, 18, 19, 20
measurement_name: shrunken log2 fold change
Just the number, please.

// known answers, use as guide
RRIRPRPPRLPRPRPRPEPEPRP	0.433
RRIRQRPPRLPRPRPRPGHCPRP	0.217

input: Give shrunken log2 fold change for the following sequence: RRIRKRPPRLPRPRPRPDRVPRP
output: -0.00884

input: Entry RRIRLRPPRLPRPRPRPSADPRP needs its shrunken log2 fold change filled in; supply it.
output: 0.07

input: Entry RRIRFRPPRLPRPRPRPPYVPRP needs its shrunken log2 fold change filled in; supply it.
output: -0.36

input: Look up and state reported shrunken log2 fold change for RRIRHRPPRLPRPRPRPMRHPRP
output: -0.0546

input: Identify measured shrunken log2 fold change corresponding to RRIRKRPPRLPRPRPRPCWAPRP
output: 0.114

input: Indicate the recorded shrunken log2 fold change value for this sequence: RRIRNRPPRLPRPRPRPKDWPRP
output: 0.0256

input: Report shrunken log2 fold change, nothing else, for this sequence: RRIRKRPPRLPRPRPRPQCWPRP
output: 0.00452

input: Query shrunken log2 fold change for RRIRQRPPRLPRPRPRPEHYPRP
output: -0.153

input: Look up and state reported shrunken log2 fold change for RRIRSRPPRLPRPRPRPFCTPRP
output: -0.375

input: Determine from records and report shrunken log2 fold change for RRIRKRPPRLPRPRPRPNHMPRP
output: -0.106

input: Fill in reported shrunken log2 fold change for this entry: RRIRNRPPRLPRPRPRPTRVPRP
output: 0.376

input: For the sequence RRIRYRPPRLPRPRPRPINNPRP , report shrunken log2 fold change.
output: -0.892

input: For the sequence RRIRERPPRLPRPRPRPEPTPRP , give its reported shrunken log2 fold change.
output: 0.327

input: Input RRIRVRPPRLPRPRPRPANIPRP , output reported shrunken log2 fold change.
output: -0.156

====

System: Escherichia coli TOP10
Experiment: shrunken log2 fold change of peptide-encoding DNA abundance (4.5 h post-induction vs induction); higher = less antimicrobial activity (less host growth inhibition)
Settings: time post-induction: 4.5 h; library: site-saturation at positions 5, 18, 19, 20
Returns one of 1.0 or 0.0; 1.0 when shrunken log2 fold change is >= -0.2.

These recorded examples may help you get a feel for the data.
RRIRPRPPRLPRPRPRPQFLPRP	1.0
RRIRARPPRLPRPRPRPLVHPRP	1.0
RRIRTRPPRLPRPRPRPCCGPRP	1.0

input: Dear colleague, could you confirm whether RRIRGRPPRLPRPRPRPNSAPRP has shrunken log2 fold change at or above -0.2?
output: 1.0

input: Reported shrunken log2 fold change at or above -0.2? RRIRCRPPRLPRPRPRPAMDPRP
output: 0.0

input: Tell me whether shrunken log2 fold change is at least -0.2 here: RRIRHRPPRLPRPRPRPDARPRP
output: 1.0

input: Quick check: does RRIRKRPPRLPRPRPRPAWCPRP have shrunken log2 fold change greater than or equal to -0.2?
output: 1.0

input: Please tell me: is the sequence RRIRVRPPRLPRPRPRPYIQPRP at or over -0.2 in terms of shrunken log2 fold change?
output: 0.0

input: Could you please find out whether RRIRWRPPRLPRPRPRPCTSPRP has shrunken log2 fold change that meets -0.2 or exceeds it?
output: 1.0

input: Exam item: decide whether the reported shrunken log2 fold change for RRIRARPPRLPRPRPRPWHYPRP is at least -0.2.
output: 0.0

input: Reported shrunken log2 fold change at or above -0.2? RRIRVRPPRLPRPRPRPWVMPRP
output: 0.0

====

Quick list: shrunken log2 fold change per entry.
Test system: Escherichia coli TOP10
Test: shrunken log2 fold change of peptide-encoding DNA abundance (4.5 h post-induction vs induction); higher = less antimicrobial activity (less host growth inhibition)
Conditions: time post-induction: 4.5 h; library: site-saturation at positions 5, 18, 19, 20

Example entries and their recorded answers appear below.
RRIRTRPPRLPRPRPRPCKDPRP	0.027
RRIRNRPPRLPRPRPRPCNDPRP	-0.274
RRIRCRPPRLPRPRPRPCVDPRP	-0.164

input: Complete the entry with shrunken log2 fold change for RRIRRRPPRLPRPRPRPAFWPRP
output: 0.547

input: Tell me measured shrunken log2 fold change for RRIRSRPPRLPRPRPRPMPMPRP please.
output: 0.0988

input: Retrieve shrunken log2 fold change measured for RRIRGRPPRLPRPRPRPNVMPRP and print it.
output: 0.114

====

Tested on: Escherichia coli TOP10
Test: shrunken log2 fold change of peptide-encoding DNA abundance (4.5 h post-induction vs induction); higher = less antimicrobial activity (less host growth inhibition)
Details: time post-induction: 4.5 h; library: site-saturation at positions 5, 18, 19, 20
measurement_name: shrunken log2 fold change
Reply with just the number.

Field: example entries. Status: answers known.
RRIRQRPPRLPRPRPRPLTPPRP	0.31
RRIRIRPPRLPRPRPRPCLWPRP	0.0796
RRIRNRPPRLPRPRPRPEKGPRP	-0.0357
RRIRMRPPRLPRPRPRPSHQPRP	-0.0291
RRIRPRPPRLPRPRPRPMYSPRP	-0.386

// switching to the query sequence
input: // Input: RRIRERPPRLPRPRPRPEDKPRP . Output its shrunken log2 fold change only.
output: -0.034

====

System: Escherichia coli TOP10;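 also: peptides expressed intracellularly from a pBAD plasmid library in pooled LB shake-flask culture, induced with 0.3% L-arabinose, DNA abundance read by NGS, three biological replicates, DESeq2 with apeglm shrinkage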
Assay: shrunken log2 fold change of peptide-encoding DNA abundance (4.5 h post-induction vs induction); higher = less antimicrobial activity (less host growth inhibition)
Conditions: time post-induction: 4.5 h; library: site-saturation at positions 5, 18, 19, 20
measurement_name: shrunken log2 fold change

Guide cases for shrunken log2 fold change, answers given:
RRIRTRPPRLPRPRPRPMSYPRP	0.0494
RRIRVRPPRLPRPRPRPGCCPRP	0.385
RRIRERPPRLPRPRPRPYIYPRP	-0.254

input: Assign shrunken log2 fold change to the following record: RRIRSRPPRLPRPRPRPYQVPRP
output: -0.0683

input: Specify reported shrunken log2 fold change for the sequence shown: RRIRGRPPRLPRPRPRPHKIPRP
output: 0.11

input: Give the value of shrunken log2 fold change reported for the following: RRIRDRPPRLPRPRPRPSTEPRP
output: 0.301

input: Please supply the value of reported shrunken log2 fold change for the item RRIRGRPPRLPRPRPRPYGGPRP
output: -0.26

input: Give the measured shrunken log2 fold change for RRIRGRPPRLPRPRPRPTDEPRP
output: 0.573

input: Give the value of shrunken log2 fold change reported for the following: RRIRERPPRLPRPRPRPHSAPRP
output: -0.179

input: Identify measured shrunken log2 fold change associated with RRIRMRPPRLPRPRPRPSCNPRP
output: 0.197

input: Supply shrunken log2 fold change value. Item: RRIRERPPRLPRPRPRPYRGPRP
output: -0.00417

input: Note shrunken log2 fold change for the sequence shown: RRIRNRPPRLPRPRPRPNINPRP
output: -0.638

input: Let me know recorded shrunken log2 fold change for RRIRHRPPRLPRPRPRPLCCPRP , thanks.
output: -0.0675

input: Look up shrunken log2 fold change of RRIRCRPPRLPRPRPRPHTEPRP and report it.
output: -0.273

input: Identify measured shrunken log2 fold change corresponding to RRIRERPPRLPRPRPRPWGSPRP
output: -0.0459

input: Could you please provide reported shrunken log2 fold change for RRIRFRPPRLPRPRPRPAKEPRP ? Thanks!
output: 0.0148

input: Supply measured shrunken log2 fold change of RRIRPRPPRLPRPRPRPNMRPRP in your reply.
output: 0.272

input: Retrieve shrunken log2 fold change measured for RRIRMRPPRLPRPRPRPMFFPRP and print it.
output: -0.0106

input: Consider the sequence RRIRDRPPRLPRPRPRPFTCPRP and give its recorded shrunken log2 fold change.
output: -0.00884

input: Tell me shrunken log2 fold change reported for RRIRGRPPRLPRPRPRPYKEPRP
output: -0.375

input: Consider the sequence RRIRKRPPRLPRPRPRPYNGPRP and give its recorded shrunken log2 fold change.
output: -0.00151

input: Please give the documented shrunken log2 fold change of RRIRFRPPRLPRPRPRPAMMPRP
output: 0.0488
